# study system: T1, rat MuSK (rat, UniProt Q62838 22-494, limits assumed)
# T1 construct: Coated on Biacore chip (200RU) or ELISA plate
# T1 sequence (looked up): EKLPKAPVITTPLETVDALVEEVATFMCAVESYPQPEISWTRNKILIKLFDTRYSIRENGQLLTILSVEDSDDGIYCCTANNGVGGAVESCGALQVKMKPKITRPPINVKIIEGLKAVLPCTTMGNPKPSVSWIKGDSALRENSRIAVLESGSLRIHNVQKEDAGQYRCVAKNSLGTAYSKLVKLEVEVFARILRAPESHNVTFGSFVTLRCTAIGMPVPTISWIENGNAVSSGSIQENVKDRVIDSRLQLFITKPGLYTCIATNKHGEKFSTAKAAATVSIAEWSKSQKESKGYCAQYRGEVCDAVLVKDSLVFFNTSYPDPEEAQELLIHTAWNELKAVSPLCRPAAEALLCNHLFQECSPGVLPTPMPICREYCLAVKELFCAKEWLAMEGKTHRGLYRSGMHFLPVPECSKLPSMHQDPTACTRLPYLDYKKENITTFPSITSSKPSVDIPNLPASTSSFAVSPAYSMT
# test description: Biacore, MuSK on chip (200RU), 66.7 nM mAb, dissociation pH 7.4
property label: kon (M⁻¹ s⁻¹)

3B2g2m2 (antibody, human IgG1, V domains shown, human IgG1-LALA backbone; produced in HEK293 cells) VH: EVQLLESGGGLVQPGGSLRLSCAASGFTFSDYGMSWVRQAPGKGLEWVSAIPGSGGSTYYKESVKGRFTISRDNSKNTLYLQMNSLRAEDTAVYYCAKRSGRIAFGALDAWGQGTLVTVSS VL: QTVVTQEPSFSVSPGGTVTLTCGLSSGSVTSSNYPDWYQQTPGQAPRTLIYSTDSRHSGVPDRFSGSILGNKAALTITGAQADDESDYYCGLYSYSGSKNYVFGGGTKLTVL :: 1.56e+06
